# target-system: T1, human plasma kallikrein (human, UniProt P03952 20-390; P03952 391-638)
# T1 construct: two disulfide-linked chains; NP_000883.2; also called pKal; hpKal
# T1 sequence (P03952 20-390 limits assumed, chain 1 of 2): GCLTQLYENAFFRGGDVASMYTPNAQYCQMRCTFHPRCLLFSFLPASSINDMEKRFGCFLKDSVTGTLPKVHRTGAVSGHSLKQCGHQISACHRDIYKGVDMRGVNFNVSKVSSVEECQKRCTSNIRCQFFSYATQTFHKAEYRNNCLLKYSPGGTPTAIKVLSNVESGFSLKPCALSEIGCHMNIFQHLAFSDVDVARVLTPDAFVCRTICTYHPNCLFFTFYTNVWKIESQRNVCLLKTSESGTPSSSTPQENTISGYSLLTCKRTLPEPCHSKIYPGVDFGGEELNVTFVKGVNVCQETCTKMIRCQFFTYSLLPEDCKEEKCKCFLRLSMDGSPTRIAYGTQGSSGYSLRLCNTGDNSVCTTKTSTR
# T1 sequence (P03952 391-638 limits assumed, chain 2 of 2): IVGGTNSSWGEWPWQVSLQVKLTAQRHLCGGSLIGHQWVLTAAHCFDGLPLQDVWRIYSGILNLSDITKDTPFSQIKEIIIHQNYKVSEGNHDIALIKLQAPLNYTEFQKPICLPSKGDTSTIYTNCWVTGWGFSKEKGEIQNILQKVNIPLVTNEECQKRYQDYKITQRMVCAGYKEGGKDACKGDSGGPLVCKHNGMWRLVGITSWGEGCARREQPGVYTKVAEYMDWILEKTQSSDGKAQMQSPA
# test: ELISA, biotinylated pKal signal over streptavidin background
measurement-label: ELISA (T/B)

[[record]]
binder = "M38-F02 (Fab, V domains shown) VH: EVQLLESGGGLVQPGGSLRLSCAASGFTFSYYMMVWVRQAPGKGLEWVSYIYSSGGHTVYADSVKGRFTISRDNSKNTLYLQMNSLRAEDTAVYYCARDLFLYDFWSKGAFDIWGQGTMVTVSS VL: QSVLTQPPSVSVSPGQTASITCSGEKLGDKYVSWYQQKPGQSPSLVICEDSRRPSGIPERFSGSNSGNTATLTISGAQPMDEADYYCQAWDSSTAIFGPGTKVTVL"
measurement_label = "ELISA (T/B)"
test_result = 33.5

[[record]]
binder = "M137-E12 (Fab, V domains shown) VH: EVQLLESGGGLVQPGGSLRLSCAASGFTFSDYRMQWVRQAPGKGLEWVSVIVPSGGNTMYADSVKGRFTISRDNSKNTLYLQMNSLRAEDTAVYYCARGGPGSSIAARRAPTGYYGMDVWGQGTTVTVSS VL: QSVLIQPPSVSGIPGQRVTISCSGNNSNFGSNTVTWYQQLPGTAPKLLIYSDSRRPSGVPDRFSGSRSDTSASLAISGLQSEDEAEYHCAAWDDSLNGVFGGGTKLTVL"
measurement_label = "ELISA (T/B)"
test_result = 4.5

[[record]]
binder = "M152-A12 (Fab, V domains shown) VH: EVQLLESGGGLVQPGGSLRLSCAASGFTFSPYFMGWVRQAPGKGLEWVSGIGPSGGSTTYADSVKGRFTISRDNSKNTLYLQMNSLRAEDTAVYYCAREGPPYSSGWYRGLRQYHFDYWGQGTLVTVSS VL: DIQMTQSPSSLSASVGDRVTITCRASQSISSYLSWYQQRPGKAPNLLIYAASSLQSGVPSRFSGSGSGTDFTLTISSLQPEDFATYYCQQSISIPRTFGQGTKVEVK"
measurement_label = "ELISA (T/B)"
test_result = 19


From: patent US20260176378A1
